Assay: Compound stability in human liver microsomes
Format: in vitro ADME
Conditions: pH 7.4; human liver microsomes 0.5 mg protein/mL, compound 5 μM, NADPH, 37° C.; read-out: Human T1/2
Protocol: Human or rat liver microsomes incubations were conducted in duplicate in polypropylene tubes. […] The concentrations of compounds in the incubation mixtures of human or rat liver microsomes were determined by a LC/MS/MS method. The ranges of the linearity in the concentration range were determined for each tested compounds. […]
property name: half-life at 5 μM (min)
Give the number; min is assumed, so skip it.

As a guide, the following entries are already answered.
In [3]: df
Out[3]:
                                   molecule      property_name  result
0  Cn1cc(Nc2ncc(Cl)c(N[C@H]3COC4C3OC[C@H]4NS(=O)(=O)N3CCCC3)n2)cn1 (some centres unmarked) [Ex. 6]  half-life at 5 μM    37.3
1  Cn1cc(Nc2ncc(Cl)c(N[C@@H]3COC4C3OC[C@@H]4NS(=O)(=O)CC(C)(F)F)n2)cn1 (some centres unmarked) [Ex. 38]  half-life at 5 μM    65.6
2  CC(C)CS(=O)(=O)N[C@@H]1COC2C1OC[C@@H]2Nc1nc(Nc2cnn(C)c2)ncc1Cl (some centres unmarked) [Ex. 13]  half-life at 5 μM    32.9

Task item: // half-life at 5 μM lookup, key: Cn1cc(Nc2ncc(Cl)c(N[C@@H]3COC4C3OC[C@@H]4Nc3ccc(C#N)nn3)n2)cn1 (some centres unmarked) [Ex. 3]
Reply: 142

Task item: // half-life at 5 μM lookup, key: O=S(=O)(CC1CC1)N[C@H]1COC2C1OC[C@H]2Nc1nc(Nc2cnn(C3CCNCC3)c2)ncc1Cl (some centres unmarked) [Ex. 35]
Reply: 51.1

Task item: // half-life at 5 μM lookup, key: Cn1cc(Nc2ncc(Cl)c(N[C@@H]3COC4C3OC[C@@H]4NS(=O)(=O)c3ccc(F)cc3)n2)cn1 (some centres unmarked) [Ex. 8]
Reply: 57.3

Task item: // half-life at 5 μM lookup, key: Cn1cc(Nc2ncc(Cl)c(N[C@@H]3COC4C3OC[C@@H]4Nc3ccc(C#N)cn3)n2)cn1 (some centres unmarked) [Ex. 23]
Reply: 60

Task item: // half-life at 5 μM lookup, key: Cn1cc(Nc2ncc(Cl)c(N[C@@H]3COC4C3OC[C@@H]4NS(=O)(=O)C(C)(C)C)n2)cn1 (some centres unmarked) [Ex. 24]
Reply: 25.6

Task item: // half-life at 5 μM lookup, key: Cn1cc(Nc2ncc(Cl)c(N[C@@H]3COC4C3OC[C@@H]4NS(=O)(=O)C3CCCC3)n2)cn1 (some centres unmarked) [Ex. 14]
Reply: 24.7

Task item: // half-life at 5 μM lookup, key: Cn1cc(Nc2ncc(Cl)c(N[C@@H]3COC4C3OC[C@@H]4NS(=O)(=O)CC3CC3)n2)cn1 (some centres unmarked) [Ex. 25]
Reply: 83.4

Task item: // half-life at 5 μM lookup, key: Cn1cc(Nc2ncc(Cl)c(N[C@@H]3COC4C3OC[C@@H]4NS(=O)(=O)C3CCOC3)n2)cn1 (some centres unmarked) [Ex. 20]
Reply: 75.5

Task item: // half-life at 5 μM lookup, key: CC(C)CS(=O)(=O)N[C@H]1COC2C1OC[C@H]2Nc1nc(Nc2cnn(C)c2)ncc1Cl (some centres unmarked) [Ex. 2]
Reply: 37

Task item: // half-life at 5 μM lookup, key: Cn1cc(Nc2ncc(Cl)c(N[C@@H]3COC4C3OC[C@@H]4NS(=O)(=O)CC(F)(F)F)n2)cn1 (some centres unmarked) [Ex. 27]
Reply: 190

Task item: // half-life at 5 μM lookup, key: CC(CF)CS(=O)(=O)N[C@H]1COC2C1OC[C@H]2Nc1nc(Nc2cnn(C)c2)ncc1Cl (some centres unmarked) [Ex. 37]
Reply: 26.6
